target.desc: 3R Shaker K channel (Drosophila melanogaster, UniProt P08510, A359R/DEL6-46/M356R)
Construct: gene Sh
Sequence (P08510 with tags, fused parts or gaps DEL6-46/M356R/A359R): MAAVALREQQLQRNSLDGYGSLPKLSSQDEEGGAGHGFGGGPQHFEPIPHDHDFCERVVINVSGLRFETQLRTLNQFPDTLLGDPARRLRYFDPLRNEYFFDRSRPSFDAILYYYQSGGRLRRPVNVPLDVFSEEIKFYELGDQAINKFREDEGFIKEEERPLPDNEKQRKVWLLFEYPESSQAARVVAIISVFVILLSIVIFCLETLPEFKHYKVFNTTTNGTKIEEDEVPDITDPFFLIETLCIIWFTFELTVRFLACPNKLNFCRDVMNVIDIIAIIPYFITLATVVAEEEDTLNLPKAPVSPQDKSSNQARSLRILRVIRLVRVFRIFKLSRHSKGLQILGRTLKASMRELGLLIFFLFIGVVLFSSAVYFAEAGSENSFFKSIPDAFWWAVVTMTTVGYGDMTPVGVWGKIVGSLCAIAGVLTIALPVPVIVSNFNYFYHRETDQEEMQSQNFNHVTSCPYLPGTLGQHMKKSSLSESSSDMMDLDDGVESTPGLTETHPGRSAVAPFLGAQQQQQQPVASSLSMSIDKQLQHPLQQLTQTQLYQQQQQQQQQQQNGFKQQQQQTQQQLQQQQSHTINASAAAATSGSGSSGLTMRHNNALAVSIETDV
assay: two-electrode voltage clamp in Xenopus oocytes, G(V) shift
Format: cell-based
endpoint: EC50 (µM)
// return numeric value only (unit: µM, not printed)

Look at this molecule and give its reported EC50. CC(C)c1ccc2c(c1)CC[C@H]1[C@](C)(C(=O)O)CCC[C@]21C [compound 4, dehydroabietic acid]
89
